target: GST-YTHDF1 (Homo sapiens, UniProt Q9BYJ9); construct: made in house; assay: HTRF-based binding assay, DF1; settings: HTRF, 100 µM compound, normalized
Sequence (Q9BYJ9 whole entry): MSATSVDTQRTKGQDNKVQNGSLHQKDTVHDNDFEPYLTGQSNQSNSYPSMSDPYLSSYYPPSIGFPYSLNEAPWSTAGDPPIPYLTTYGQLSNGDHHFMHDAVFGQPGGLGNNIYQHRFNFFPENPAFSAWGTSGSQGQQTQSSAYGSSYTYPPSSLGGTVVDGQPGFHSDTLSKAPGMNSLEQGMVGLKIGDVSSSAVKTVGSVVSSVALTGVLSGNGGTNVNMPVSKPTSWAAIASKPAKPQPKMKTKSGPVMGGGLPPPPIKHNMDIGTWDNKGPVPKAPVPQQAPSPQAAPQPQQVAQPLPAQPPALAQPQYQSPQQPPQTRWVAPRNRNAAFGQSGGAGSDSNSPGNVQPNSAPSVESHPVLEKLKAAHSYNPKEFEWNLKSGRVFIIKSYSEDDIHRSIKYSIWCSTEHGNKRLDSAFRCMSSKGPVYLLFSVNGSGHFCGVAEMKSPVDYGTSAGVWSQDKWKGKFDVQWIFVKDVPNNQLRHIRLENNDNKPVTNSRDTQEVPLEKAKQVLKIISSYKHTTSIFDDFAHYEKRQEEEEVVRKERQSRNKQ
reported_endpoint: Single-dose residual signal at 100 µM, DF1 (%)
I only need the number, in %, no unit after it.

compound	unit_text	test_value
Cc1c(C(C)O)sc2[nH]c(=S)[nH]c(=O)c12 (racemic)	%	31
CCOC(=O)c1csc2[nH]c(=S)[nH]c(=O)c12	%	16
Cc1c(C(=O)NCc2cccnc2)sc2[nH]c(=S)[nH]c(=O)c12	%	20

Can you share its Single-dose residual signal at 100 µM, DF1? I mean this compound: Cc1c(C(=O)NCc2cccc(C(=O)O)c2)sc2[nH]c(=S)[nH]c(=O)c12
5

Try this compound too: NC(=O)c1csc2[nH]c(=S)[nH]c(=O)c12
27

----------
Biological target: GST-YTHDF2 (Homo sapiens)
Construct: made in house
Sequence (Q9Y5A9 1-579): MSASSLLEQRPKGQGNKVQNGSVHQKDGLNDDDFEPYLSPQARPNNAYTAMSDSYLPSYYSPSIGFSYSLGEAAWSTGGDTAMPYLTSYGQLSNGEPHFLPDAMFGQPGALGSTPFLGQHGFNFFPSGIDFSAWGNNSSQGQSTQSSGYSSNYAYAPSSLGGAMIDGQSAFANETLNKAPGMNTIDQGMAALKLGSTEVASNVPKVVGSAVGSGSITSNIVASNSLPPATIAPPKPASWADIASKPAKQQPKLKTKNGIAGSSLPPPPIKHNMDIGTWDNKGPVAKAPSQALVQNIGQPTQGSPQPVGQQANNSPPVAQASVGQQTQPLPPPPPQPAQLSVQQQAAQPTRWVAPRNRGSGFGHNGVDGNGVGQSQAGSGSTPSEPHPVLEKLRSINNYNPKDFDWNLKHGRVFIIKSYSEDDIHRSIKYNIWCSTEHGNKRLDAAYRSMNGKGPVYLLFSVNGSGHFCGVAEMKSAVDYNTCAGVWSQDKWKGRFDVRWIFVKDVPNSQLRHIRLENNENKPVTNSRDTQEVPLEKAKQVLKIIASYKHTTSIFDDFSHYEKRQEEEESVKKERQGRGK
Assay: HTRF-based binding assay, competition with m6A-oligoRNA, DF2
Settings: LE = -RT ln IC50/HAC from HTRF IC50
reported_endpoint: LE (ligand efficiency, DF2)

chemical_string	LE (ligand efficiency, DF2)
NC(=O)c1csc2[nH]c(=S)[nH]c(=O)c12	0.47 kcal/(mol HAC)
Cc1ccccc1NN=C1C(=O)NC(=S)NC1=O	0.29 kcal/(mol HAC)
O=c1cn[nH]c(=S)[nH]1	0.73 kcal/(mol HAC)
CCOc1ccc(C=C2C(=O)NC(=S)NC2=O)cc1Cl	0.29 kcal/(mol HAC)
COC(=O)c1ccc(-c2csc3[nH]c(=S)[nH]c(=O)c23)cc1	0.35 kcal/(mol HAC)

Can you share its LE (ligand efficiency, DF2)? I mean this molecule: O=C(O)c1ccc(-c2csc3[nH]c(=S)[nH]c(=O)c23)cc1
0.36 kcal/(mol HAC)

Try this molecule too: Cc1c(-c2ccc(N)cc2)sc2[nH]c(=S)[nH]c(=O)c12
0.39 kcal/(mol HAC)

Try this molecule too: CCOC(=O)c1sc2[nH]c(=S)[nH]c(=O)c2c1C
0.42 kcal/(mol HAC)

Try this molecule too: O=c1[nH]c(=S)[nH]c2scc(-c3ccc(O)cc3)c12
0.34 kcal/(mol HAC)

Try this molecule too: O=c1[nH]c(=S)[nH]c2sccc12
0.60 kcal/(mol HAC)
